# study.system: human iNOS (Homo sapiens)
# Sequence (P35228 whole entry): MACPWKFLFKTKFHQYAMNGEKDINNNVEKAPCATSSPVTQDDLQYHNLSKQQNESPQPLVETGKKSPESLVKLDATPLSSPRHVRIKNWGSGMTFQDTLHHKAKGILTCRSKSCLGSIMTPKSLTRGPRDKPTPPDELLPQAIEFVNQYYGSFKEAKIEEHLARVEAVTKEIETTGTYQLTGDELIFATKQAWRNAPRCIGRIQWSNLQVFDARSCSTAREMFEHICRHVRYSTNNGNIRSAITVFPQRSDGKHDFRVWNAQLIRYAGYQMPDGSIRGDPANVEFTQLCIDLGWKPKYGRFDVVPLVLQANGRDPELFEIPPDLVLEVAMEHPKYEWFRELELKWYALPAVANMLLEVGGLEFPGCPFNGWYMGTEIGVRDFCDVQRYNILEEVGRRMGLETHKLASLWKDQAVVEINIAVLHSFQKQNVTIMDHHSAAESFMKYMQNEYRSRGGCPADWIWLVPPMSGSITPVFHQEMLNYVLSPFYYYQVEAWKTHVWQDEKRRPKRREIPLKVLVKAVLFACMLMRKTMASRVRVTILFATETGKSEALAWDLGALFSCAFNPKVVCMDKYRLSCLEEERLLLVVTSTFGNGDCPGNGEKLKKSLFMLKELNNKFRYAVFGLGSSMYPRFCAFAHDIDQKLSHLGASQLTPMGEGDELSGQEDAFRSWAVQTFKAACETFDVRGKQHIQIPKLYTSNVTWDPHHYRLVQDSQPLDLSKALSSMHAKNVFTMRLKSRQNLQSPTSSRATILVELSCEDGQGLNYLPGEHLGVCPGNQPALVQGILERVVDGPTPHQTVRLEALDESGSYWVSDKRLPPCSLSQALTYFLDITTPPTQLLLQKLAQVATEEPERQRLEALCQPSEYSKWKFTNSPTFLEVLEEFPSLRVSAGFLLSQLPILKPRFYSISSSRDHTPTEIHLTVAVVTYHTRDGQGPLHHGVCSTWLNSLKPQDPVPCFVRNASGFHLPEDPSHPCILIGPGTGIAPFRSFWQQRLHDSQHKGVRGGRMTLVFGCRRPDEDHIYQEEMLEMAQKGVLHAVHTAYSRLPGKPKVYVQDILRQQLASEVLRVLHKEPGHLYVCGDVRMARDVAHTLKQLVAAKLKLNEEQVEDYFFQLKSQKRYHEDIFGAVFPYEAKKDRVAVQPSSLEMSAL
# experiment.summary: DAN assay of nitric oxide production (hiNOS)
# measurement.context: enzyme expressed in HEK293 cells transiently transfected with human iNOS
pEC50: −log10 of the molar value.
measured.metric: pEC50

Example compounds with recorded pEC50:
* Cc1ncsc1C(=O)N(Cc1cc(=O)[nH]c2c(F)c(F)ccc12)c1cccnc1 [Example 263] | ≥ 5.30
* Cc1ncsc1C(=O)N(Cc1cc(=O)[nH]c2c(F)c(F)ccc12)C(C)C [Example 185] | < 5.30
* Cc1ncsc1C(=O)N(Cc1cc2cccc(F)c2[nH]c1=O)c1cccc(Cl)c1 [Example 171] | < 5.30

Request: Which pEC50 value is on record for O=C(c1cccnc1)N(Cc1cc(=O)[nH]c2ccccc12)c1ccccc1 [Example 33] ?
Result: < 5.30

Request: Try this compound next: Cc1ncsc1C(=O)N(Cc1cc(=O)[nH]c2c(F)c(F)ccc12)c1cccc(Cl)c1F [Example 96]
Result: ≥ 5.30

Request: Try this compound too: O=C(c1ccccc1F)N(Cc1cc(=O)[nH]c2c(F)cccc12)c1cccc(Cl)c1 [Example 54]
Result: < 5.30

Request: Quick one: O=c1cc(CN(c2cccc(Cl)c2)c2ccccn2)c2cccc(F)c2[nH]1 [Example 77]
Result: < 5.30

Request: Next up: Cc1nc(-c2cccc(Cl)c2)n(Cc2cc(=O)[nH]c3c(F)c(F)ccc23)c1C [Example 257]
Result: ≥ 5.30

Request: Likewise for O=c1cc(Cn2c(-c3cccc(F)c3)nc3ccccc32)c2ccc(F)c(F)c2[nH]1 [Example 196] ?
Result: ≥ 5.30

Request: Then CC(C)c1nc2ccn(Cc3cc(=O)[nH]c4c(F)c(F)ccc34)cc-2n1 [Example 230] ?
Result: < 5.30

Request: Repeat for the following compound: O=c1cc(Cn2c(-c3cccnc3)nc3ccccc32)c2ccccc2[nH]1 [Example 125]
Result: < 5.30

Request: And then O=C(c1ccc2ccccc2c1)N(Cc1cc(=O)[nH]c2c(F)cccc12)c1cccc(Cl)c1 [Example 83] , what is it?
Result: < 5.30

Request: Try this compound next: COc1cccc(N(Cc2cc(=O)[nH]c3c(F)cccc23)C(=O)c2scnc2C)c1 [Example 262]
Result: ≥ 5.30

Request: Entry Cc1ncsc1C(=O)N(Cc1cc(=O)[nH]c2c(F)cccc12)C1CC1 [Example 87] please
Result: < 5.30
